The reported measurements were obtained from paper PMC4072508.

Biological target: T1, Mcl-1, Q07820
T1 chain: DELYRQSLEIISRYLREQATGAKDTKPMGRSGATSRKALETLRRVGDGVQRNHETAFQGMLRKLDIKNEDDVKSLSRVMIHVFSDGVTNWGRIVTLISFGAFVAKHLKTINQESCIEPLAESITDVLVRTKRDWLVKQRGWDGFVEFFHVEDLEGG
Experiment: peptide SPOT array, c-Myc-tagged receptor at 1 uM or 100 nM, anti-c-Myc-Cy3
Threshold check on SPOT signal as a fraction of Bim BH3's signal on the same receptor and array: strictly below 0.02 is t; on or above 0.02 is f.

Use the examples below as a reference point.
Problem: Regarding FEVDDGTSVLLKKNSQHFLPRWKCEQ [GINS1] , kindly confirm whether its SPOT signal as a fraction of Bim BH3's signal on the same receptor and array is beneath 0.02.
Solution: f

Problem: Another binder to check: SPYVFNGGTIDAIAGEDFAIVASDTR [PSMB1]
Solution: t

---
Problem: Answer whether the binder ISSYMVLAPVFGYLGDRYNRKYLMCG [SPNS1] has SPOT signal as a fraction of Bim BH3's signal on the same receptor and array strictly less than 0.02
Solution: f

Problem: What do we get for SAGVPVRGVELQAAAERFARCFGRTD [TIGD7] ?
Solution: f

Problem: Same question, MSLFLRVVFSDTMFGDLFEEEYSTVS [USP40] this time
Solution: f

Problem: Now give it for AEIETEYSRNLEKLAERFMAKTRSTK [SRGAP1] too.
Solution: f

Problem: Now the same for IKKSVTKGEMLKIVGKRFREHFPEIL [MAGEB2]
Solution: f

Problem: Query VFDDLRGSVSLSWVGDSTGVILVLTT [SORT1] next
Solution: t

Problem: What do you get for QRKHEGFERDLAALLDKVNSLGETAE [SPTAN1] ?
Solution: f

Problem: Same read-out for LLDFFMVSILFSKLLDLLHKLQFVLT [PCNXL2] ?
Solution: f

Problem: Cool, now PSIQLHGAKLLEELGTGLIQQYKPDS [HEATR6]
Solution: t
